Assay: Loss of tail withdrawal reflex (LOTWR) in rats, single intravenous injection, dose escalation: potent analgesic effect and severe adverse reactions
Type: in vivo, SD rats
Details: rat, in vivo, single intravenous injection, minimum dose resulting in serious adverse reactions / minimum effective dose, class symbol, read-out: The safety therapeutic index
Protocol: Using the loss of tail withdrawal reflex (LOTWR) in rats as an indicator, the potent analgesic effect of the compounds according to the present invention was evaluated. 1.1 Experimental animals: Adult male SD rats weighing between 220-300 g were selected for the experiment. The rats were housed in sawdust-bedded cages with a temperature of 25±1°C, humidity ranging from 40% to 60%, and a 12-hour light/12-hour dark cycle. Each cage contained no more than 5 rats, with free access to water and food. […]

# molecule, selectivity ratio
measured = [
    ("Cc1ccc(CNC(=S)NCc2ccsc2)c(N(C)C)c1 [Example 2]", "≤ 2"),
    ("Cc1ccc(CNC(=O)NCc2ccns2)c(N(C)C)c1 [Example 37]", "> 4"),
    ("Cc1ccc(CNC(=N)NCc2cccs2)cc1N(C)C [Example 33]", "≤ 2"),
    ("COC(=O)C(C#N)=C(NCc1ccsc1)NCc1ccc(C)cc1N(C)C [Example 22]", "≤ 2"),
    ("Cc1ccc(CNC(=S)NCc2ccnn2C)c(N(C)C)c1 [Example 87]", "> 4"),
    ("COC(=O)CCc1ccc(CNC(=O)NCc2ccsc2)c(N(C)C)c1 [Example 44]", "≤ 2"),
]
